assay: Total plasma concentration in swine at 1.6 mg/kg, iv infusion via saphenous vein after 60 mins by LC-MS/MS analysis; assay type: ADME, organism-based, Sus scrofa; conditions: pig
Measured concentration at 1 h of individual entries
measured.parameter: concentration at 1 h (µM)

compound	measured.parameter	observed.result
CC(C)OC(=O)[C@H](CCC(=O)C=[N+]=[N-])NC(=O)OC(OC(=O)C(C)(C)C)c1ccccc1 (some centres not stated)	concentration at 1 h	4.88
[N-]=[N+]=CC(=O)CC[C@H](N)C(=O)O [6-DIAZO-5-OXO-L-NORLEUCINE]	concentration at 1 h	41.2
